assayed-system: Voltage-dependent L-type calcium channel subunit alpha-1C (Oryctolagus cuniculus)
Sequence (P15381 whole entry): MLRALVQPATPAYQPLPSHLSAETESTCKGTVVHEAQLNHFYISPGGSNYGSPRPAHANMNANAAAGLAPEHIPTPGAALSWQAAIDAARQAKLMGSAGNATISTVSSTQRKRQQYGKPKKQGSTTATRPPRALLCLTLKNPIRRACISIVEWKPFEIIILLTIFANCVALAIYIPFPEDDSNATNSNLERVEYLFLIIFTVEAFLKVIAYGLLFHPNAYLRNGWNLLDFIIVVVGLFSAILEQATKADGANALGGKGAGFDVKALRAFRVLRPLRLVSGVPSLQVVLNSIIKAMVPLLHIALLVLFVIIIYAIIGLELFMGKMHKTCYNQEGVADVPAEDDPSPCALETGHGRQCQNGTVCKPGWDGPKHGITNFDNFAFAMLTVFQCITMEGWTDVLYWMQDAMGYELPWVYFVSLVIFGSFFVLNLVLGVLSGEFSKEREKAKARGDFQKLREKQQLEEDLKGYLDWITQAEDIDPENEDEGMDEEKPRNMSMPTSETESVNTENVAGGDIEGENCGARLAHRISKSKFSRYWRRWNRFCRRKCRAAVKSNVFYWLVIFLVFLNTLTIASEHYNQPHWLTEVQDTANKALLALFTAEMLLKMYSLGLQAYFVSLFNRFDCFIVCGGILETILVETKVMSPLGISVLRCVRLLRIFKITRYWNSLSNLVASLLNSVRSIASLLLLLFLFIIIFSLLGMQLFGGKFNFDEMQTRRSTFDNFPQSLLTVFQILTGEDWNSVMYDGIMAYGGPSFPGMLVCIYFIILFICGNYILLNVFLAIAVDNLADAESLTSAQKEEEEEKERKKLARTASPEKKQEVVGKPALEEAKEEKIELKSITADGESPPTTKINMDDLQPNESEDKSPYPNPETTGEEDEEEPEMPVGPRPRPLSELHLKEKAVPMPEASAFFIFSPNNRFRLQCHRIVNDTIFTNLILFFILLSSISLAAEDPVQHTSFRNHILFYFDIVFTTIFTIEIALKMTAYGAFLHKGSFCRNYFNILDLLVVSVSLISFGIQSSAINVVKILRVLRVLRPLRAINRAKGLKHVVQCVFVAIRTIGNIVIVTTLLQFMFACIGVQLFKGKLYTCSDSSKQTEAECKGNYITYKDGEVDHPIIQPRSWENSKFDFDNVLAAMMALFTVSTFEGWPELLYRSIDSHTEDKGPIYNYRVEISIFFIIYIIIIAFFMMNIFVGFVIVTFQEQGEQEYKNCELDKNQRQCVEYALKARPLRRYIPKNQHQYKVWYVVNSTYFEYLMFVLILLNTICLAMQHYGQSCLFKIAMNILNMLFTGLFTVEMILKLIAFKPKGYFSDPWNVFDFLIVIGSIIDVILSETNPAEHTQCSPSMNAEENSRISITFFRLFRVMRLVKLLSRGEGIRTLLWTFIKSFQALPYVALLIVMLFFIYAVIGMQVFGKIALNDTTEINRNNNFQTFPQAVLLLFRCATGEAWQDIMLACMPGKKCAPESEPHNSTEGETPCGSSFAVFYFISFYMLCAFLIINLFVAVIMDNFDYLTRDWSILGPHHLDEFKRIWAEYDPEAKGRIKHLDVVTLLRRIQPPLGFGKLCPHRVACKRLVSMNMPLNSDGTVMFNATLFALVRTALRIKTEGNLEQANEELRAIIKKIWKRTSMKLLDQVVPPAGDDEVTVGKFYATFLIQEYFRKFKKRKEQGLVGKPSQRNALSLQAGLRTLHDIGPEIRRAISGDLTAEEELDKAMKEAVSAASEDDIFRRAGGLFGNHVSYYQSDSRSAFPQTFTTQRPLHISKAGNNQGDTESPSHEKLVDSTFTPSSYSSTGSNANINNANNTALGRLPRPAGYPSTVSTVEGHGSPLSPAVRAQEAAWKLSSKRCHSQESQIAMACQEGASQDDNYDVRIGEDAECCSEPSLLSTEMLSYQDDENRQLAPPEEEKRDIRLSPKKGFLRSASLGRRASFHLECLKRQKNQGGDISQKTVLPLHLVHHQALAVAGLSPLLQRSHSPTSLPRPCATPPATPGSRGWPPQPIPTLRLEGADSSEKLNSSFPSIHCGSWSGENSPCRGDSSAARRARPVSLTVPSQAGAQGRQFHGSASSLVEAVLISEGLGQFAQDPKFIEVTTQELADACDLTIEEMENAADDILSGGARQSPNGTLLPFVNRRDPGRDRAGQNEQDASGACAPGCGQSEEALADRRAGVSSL
assay-notes: Inhibition of Cav1.2 calcium current measured using whole cell patch clamp in rabbit ventricular myocytes
Type: functional, cell-based, Heart, Ventricular myocyte
Parameters: ca sol conc 1.8 mM, temp 34 C
endpoint-name: pIC50
Expect pIC50 as a plain number equal to -log10 of the molar concentration.

COc1ccccc1OCCNCC(O)COc1cccc2[nH]c3ccccc3c12 (stereo unspecified) [CARVEDILOL] yielded pIC50 of 5.44

----------
assayed-system: L-type calcium channel alpha 1C/beta 2A (Oryctolagus cuniculus, UniProt P15381+P54288)
assay-notes: Inhibition of Cav1.2 calcium current measured using whole cell patch clamp in human HEK293 cells transfected with rabbit L-type calcium channel subunits
Assignment: determine reported IC50 for the given molecules.
Give a bare numeral; the unit µM is implied.

Bench note, L-type calcium channel alpha 1C/beta 2A (Oryctolagus cuniculus, UniProt P15381+P54288): COc1ccc2c(c1)c(C1=C(c3c[nH]c4ccccc34)C(=O)NC1=O)cn2CCCN(C)C , IC50 reads 20

Bench note, L-type calcium channel alpha 1C/beta 2A (Oryctolagus cuniculus, UniProt P15381+P54288): O=c1cc(N2CCOCC2)oc2c(-c3ccccc3)cccc12 , IC50 reads 12
